// provenance: PubChem BioAssay (NCI)

# System: MCF7 breast
# TEST SUMMARY: NCI-60 one-dose screen, 48 h (100 = growth as untreated, 0 = no growth, -100 = all killed)
# CONDITION: 10 µM
# Description: Growth inhibition of the MCF7 human tumor cell line is measured as a screen for anti-cancer activity. Cells are grown in 96 well plates and exposed to the test compound for 48 hours. Compounds are tested at a single concentration, which is 10^-5 M for most compounds. The reported endpoint is percent growth (GI% or GIPRCNT), where numbers from 0 - 100% represent growth inhibition, and numbers from -100% - 0 represent cell death. For example, a value of 40 represents 60% growth inhibition. […]
The panel holds about 83,000 compounds, 20% with a hit somewhere; the sample as a whole holds those more often.
growth reference
REPORTED PROPERTY: growth (%)

COMPOUND | REPORTED PROPERTY | TEST RESULT
CC(C)c1cc(N=O)cc(C(C)C)c1O | growth | 103
COc1cccc(N=Nc2cccc(OC)c2)c1 | growth | 78.8
CSc1ccc(-c2cc(-c3ccc(NC(=O)CCCN4CCCC4)cc3)nc(-c3ccc(NC(=O)CCCN4CCCC4)cc3)c2)cc1 | growth | -86.4
COc1cc2c(Nc3ccc(S(N)(=O)=O)cc3)ncnc2c(OC)c1OC | growth | 96.6
COc1cc(/C=C2\CCCC3C2=Nc2ccccc2NC3c2cc(OC)c(OC)c(OC)c2)cc(OC)c1OC (stereo not given) | growth | 36.9
CN1C(C(=O)Nc2ccccn2)=C(O)c2sc(Cl)cc2S1(=O)=O | growth | 96.6
Brc1ccc2c(c1)-c1ccccc1C1=NCCN12 | growth | -5.53
C=C(NC(=O)C(=C)NC(=O)c1csc(C2=NC3c4csc(n4)C4NC(=O)c5csc(n5)C(C(C)(O)C(C)O)NC(=O)C5CSC(=N5)C(=CC)NC(=O)C(C(C)O)NC(=O)c5csc(n5)C3(CC2)NC(=O)C(C)NC(=O)C(=C)NC(=O)C(C)NC(=O)C(C(C)CC)NC2C=Cc3c(C(C)O)cc(nc3C2O)C(=O)OC4C)n1)C(N)=O (stereo not given) | growth | 16.7
COc1ccccc1-n1c(-c2sc(NC(C)=O)nc2C)n[nH]c1=S | growth | 97.5
Clc1ccc(C2=NN=C3C(Cc4ccccc4)=Nc4ccccc4N3C2)cc1 | growth | 88.7
COc1ccc(/C(C#N)=C/c2ccccc2OC)cc1 | growth | 14.8
C#CCOc1c(OC)cc(C(=O)/C(C)=C/c2cccc(N=[N+]=[N-])c2)cc1OC | growth | 16.4
OC(CNc1ccnc2cc(Cl)ccc12)CNC1CCCCC1 (stereo not given) | growth | 75.7
CCOC(=O)c1sc2ncnc(Nc3ccc4c(cnn4C(=O)Nc4ccccc4)c3)c2c1C | growth | 55.8
C/C=C/CSC(C)(C)C(=O)NC | growth | 93.8
CN(C)CCCN1c2ccccc2CCc2ccc(Cl)cc21 | growth | 50.8
O=C1Cc2cc(CCN3CCN(c4nsc5ccccc45)CC3)c(Cl)cc2N1 | growth | 86.1
COc1cc2c3c(n([C@H]4CCOC4)c(=O)c2cc1OC)-c1cc2c(cc1C3=O)OCO2 | growth | 14.2
OCCn1cccn1 | growth | 116
Cc1ccc(C(=O)/C=C/c2ccccc2)s1 | growth | 40
CCCc1nc(C(C)(C)O)c(C(=O)O)n1Cc1ccc(-c2ccccc2-c2nn[nH]n2)cc1 | growth | 98.9
CC(=O)Nc1ccc(CC[C@H]2CCC/C=C/[C@@H]3C[C@H](O)C[C@H]3[C@H](O)/C=C/C(=O)O2)cc1 | growth | -14.8
COc1ccc(-c2n[nH]nc2-c2cc(OC)c3c(c2OC)OCO3)cc1 | growth | 27.7
CC1=CC2C(C(O)CC3(C)C2CC(C)C32OCOC23COCO3)C2(C)C/C(=C/O)C(=O)C=C12 (stereo not given) | growth | 5.37
CS(=O)(=O)c1nccc(-c2c(-c3cccc(OCc4ccccc4)c3)nc3sccn23)n1 | growth | 77.4
COc1cc(-c2nc3ccccc3o2)cc(CN2CCCCC2)c1O | growth | 50.8
O=C(Nc1ccc(NS(=O)(=O)c2ccc(F)cc2)cc1)C12CC3CC(CC(C3)C1)C2 | growth | 78
O=C1CC(SC(=S)C2CCCC2=O)C(=O)N1 (stereo not given) | growth | 90.8
CCOC(=O)CN(c1sc(C)c(C)c1C(=O)OCC)S(=O)(=O)c1ccc(C)cc1 | growth | 100
O=C(Nc1ccc(OS(=O)(=O)c2ccccc2)cc1)C1CCCCC1 | growth | 97
NNC(=O)Oc1c(Cl)cc(Cl)cc1[N+](=O)[O-] | growth | 87.9
CCN(CC)c1ccc(/C=C2\SC(=O)C(Nc3nnc(-c4cccnc4SCc4ccccc4)o3)C2=O)cc1 (stereo not given) | growth | 14.3
COc1ccc(-c2nn(-c3cccc(Cl)c3)cc2C=C(C#N)C#N)cc1 | growth | -11.6
COC1OC(COS(=O)OC)C(O)C(O)C1OS(=O)OC (stereo not given) | growth | 88.4
CCOC(=O)c1cc(C(=O)c2cc(OC)c(OC)c(OC)c2)n2ccc(-c3cc[n+](CC(=O)c4cc(OC)c(OC)c(OC)c4)cc3)cc12 | growth | -29.3
COc1ccc2nc3cc(Cl)ccc3c(Nc3cc(CN4CCCC4)c(O)c(CN4CCCC4)c3)c2n1 | growth | -11.9
COc1cc(-c2nn(-c3cccc(NC(=O)NCCNS(=O)(=O)c4ccc(Cl)cc4)c3)cc2-c2ccncc2)ccc1Cl | growth | 4.85
O=C(c1ccccc1)N(C(=O)c1ccccc1)N1CCCC1 | growth | 105
CCOC(=O)c1cc(C(=O)c2cc(OC)cc(OC)c2)n2nc(C)ccc12 | growth | 20.8
COc1ccc(Cc2cnc(N)nc2N)cc1OC | growth | 100
